- System: LOX IMVI melanoma
- Test: NCI-60 one-dose screen, 48 h (100 = growth as untreated, 0 = no growth, -100 = all killed)
- Condition label: 10 µM unless noted
This is part of a sample that, as a whole, favours compounds with a hit. Of some 83,000 tested, about 20% had one in any assay.
Reported endpoint: growth (%)

- Smiles: "COc1cc(/C=C/C(=O)c2c(C)[n+]([O-])c3ccccc3[n+]2[O-])ccc1O"
  Observed measurement: 92.6
- Smiles: "O=S1(=O)N(CCNc2nccc(-c3c(-c4cccc(O)c4)nc4sccn34)n2)CCN1Cc1ccccc1"
  Observed measurement: 28.6
- Smiles: "CN1CCN(Cn2nc(-c3cc(Cl)cc(Cl)c3Cl)n(/N=C/c3ccc(Cl)cc3)c2=S)CC1"
  Observed measurement: 90.4
- Smiles: "c1ccc(CNCCN(CCNCc2ccccn2)Cc2ccc3ccccc3c2)nc1"
  Observed measurement: 0.713
- Smiles: "O=C(NCCNc1nccc(-c2c(-c3cccc(O)c3)nc3sccn23)n1)c1ccccc1O"
  Observed measurement: 33.5
- Smiles: "Cc1cc(NC(=O)c2cccc(C(F)(F)F)c2)ccc1-n1ccc2c(NC(=O)c3ccccc3)nccc21"
  Observed measurement: 101
- Smiles: "CCOC(=O)n1cnc2c(Cl)ncnc21"
  Observed measurement: 88.6
- Smiles: "C=C1C(=O)O[C@H]2[C@H]1CC/C(COC(=O)c1ccc(Br)cc1)=C\\CC[C@@]1(C)O[C@@H]21"
  Observed measurement: -94.6
- Smiles: "COc1ccc(-c2c(NC(=O)Nc3ccc(Cl)c(C(F)(F)F)c3)cnn2-c2ccc(S(N)(=O)=O)cc2)cc1"
  Observed measurement: 37.6

* * *

- Tested on: SNB-19 CNS
- Test: NCI-60 one-dose screen, 48 h (100 = growth as untreated, 0 = no growth, -100 = all killed)
- Condition label: 10 µM unless noted
The panel holds about 83,000 compounds, 20% with a hit somewhere; the sample as a whole holds those more often.

- Molecule: "O=C(Nc1ccc(-n2ccc3c(NC(=O)c4ccccc4)nccc32)cc1)Nc1cccc(C(F)(F)F)c1"
  Units symbol: "%"
  growth: 65.8
- Molecule: "COc1cc(/C=C\\c2cc(/C=C\\c3ccc(O)c(OC)c3)n(C(=O)CNc3ccccc3OC)n2)ccc1O"
  Units symbol: "%"
  growth: 70.9
- Molecule: "CN(C)c1ncc(C#Cc2c(F)cccc2F)c2ccccc12"
  Units symbol: "%"
  growth: 88.8
- Molecule: "C=C1C(=O)O[C@H]2[C@H]1CC/C(COC(=O)c1ccc(Br)cc1)=C\\CC[C@@]1(C)O[C@@H]21"
  Units symbol: "%"
  growth: 24
- Molecule: "O=S(=O)(CCN1CCOCC1)Nc1cc(-c2ccc3ncnc(Nc4ccc(F)c(Cl)c4)c3c2)cnc1Cl"
  Units symbol: "%"
  growth: 5.93
- Molecule: "O=S1(=O)N(CCNc2nccc(-c3c(-c4cccc(O)c4)nc4sccn34)n2)CCN1Cc1ccccc1"
  Units symbol: "%"
  growth: 113
- Molecule: "CC(=O)N1N=C2N(Cc3ccccc3)C(=O)c3c(sc4c3CCCC4)N2C1c1cn(-c2ccccc2)nc1-c1ccc(Cl)cc1 (centres undefined)"
  Units symbol: "%"
  growth: 94.2
- Molecule: "O=C(Nc1ccc(-n2ccc3c(NC(=O)c4ccccc4)ncnc32)cc1)Nc1ccc(Cl)c(C(F)(F)F)c1"
  Units symbol: "%"
  growth: 9.33
- Molecule: "Nc1nccc2c1ccn2-c1ccc(NC(=O)c2ccc(N3CCOCC3)c(C(F)(F)F)c2)cc1"
  Units symbol: "%"
  growth: 0.546
- Molecule: "CCc1c(C)c2cc3nc(NCc4ccccc4)oc3c(C)c2oc1=O"
  Units symbol: "%"
  growth: 59.2
- Molecule: "Cc1cc(NCCN(C(C)C)C(C)C)nc(/N=C(\\N)Nc2ccc(Cl)c(C(F)(F)F)c2)n1"
  Units symbol: "%"
  growth: -83.3
- Molecule: "COc1ccc2c(c1)/C(=C/c1c(-c3cc(OC)c(OC)c(OC)c3Br)nc3sccn13)C(=O)N2"
  Units symbol: "%"
  growth: 106
- Molecule: "NC(=NCCCOc1ccc(F)cc1)Nc1ccc(Cl)c(Cl)c1"
  Units symbol: "%"
  growth: 77
- Molecule: "C#CCn1c(-c2cc(OC)c(OC)cc2Br)nc(-c2ccccc2)c1-c1ccccc1"
  Units symbol: "%"
  growth: 55
- Molecule: "FC(F)(F)c1cn(CCN2CCOCC2)c2ncnc(Cl)c12"
  Units symbol: "%"
  growth: 22.5
- Molecule: "Cc1ccc2[nH]c3nc4cccnc4c(C)c3c2c1"
  Units symbol: "%"
  growth: 79
- Molecule: "CC(=O)CC/C=C(\\C)[C@H](O)[C@H](C)C(=O)O[C@H]1C[C@H](C)C=C2C=C[C@@]3(C)O[C@@H](O)CC(=O)[C@]3(C)[C@H]21"
  Units symbol: "%"
  growth: -12.3
- Molecule: "O=C(COc1ccc(Cl)cc1Cl)N1N=C(c2ccc(Cl)cc2Cl)CC1(O)c1cc(F)c(Cl)cc1Cl (centres undefined)"
  Units symbol: "%"
  growth: 88
- Molecule: "CCC1(C(N)=O)CC2C=CC1CC2 (centres undefined)"
  Units symbol: "%"
  growth: 90.2
- Molecule: "Nn1c(CN2CCN(c3cc4c(cc3F)c(=O)c(C(=O)O)cn4C3CC3)CC2)n[nH]c1=S"
  Units symbol: "%"
  growth: 99.6
- Molecule: "COc1ccc(-c2coc3c(CO)c(O)ccc3c2=O)cc1"
  Units symbol: "%"
  growth: 72.5
- Molecule: "O=C(O)c1cn(C2CC2)c2cc(N3CCN(C(=O)CSc4nc(NS(=O)(=O)c5ccccc5)cc(=O)[nH]4)CC3)c(F)cc2c1=O"
  Units symbol: "%"
  growth: 99.3
- Molecule: "OC(COc1ccccc1Cl)CN1CCN(c2ccc(Cl)cc2)CC1 (centres undefined)"
  Units symbol: "%"
  growth: 111
- Molecule: "O=C(O)c1cccc2oc(-c3ccccc3O)nc12"
  Units symbol: "%"
  growth: 67.8
- Molecule: "COc1ccc(/C=C2\\CS(=O)(=O)C/C(=C\\c3ccc(OC)cc3)C2=O)cc1"
  Units symbol: "%"
  growth: 3.69
- Molecule: "O=C(Nc1ccc(F)cc1)Nc1ccc(Cl)c([N+](=O)[O-])c1"
  Units symbol: "%"
  growth: 21.5
- Molecule: "O=C(Cn1c2ccccc2c2ccncc21)N/N=C/c1c[nH]c2ccccc12"
  Units symbol: "%"
  growth: 53.4
- Molecule: "CCCCCCCCCCCCCCCC(=O)NS(=O)(=O)OC[C@H]1O[C@@H](n2cnc3c(N)ncnc32)[C@H](O)[C@@H]1O"
  Units symbol: "%"
  growth: -53.7
- Molecule: "CCOC(=O)c1cnc2c(OC)ccc(OC)c2c1Cl"
  Units symbol: "%"
  growth: 114
- Molecule: "Cc1cc(SCc2ccc(Cl)cc2Cl)nc(SCc2ccc(Cl)cc2Cl)n1"
  Units symbol: "%"
  growth: 111
- Molecule: "CCCC(=O)Oc1ccc(/C(=C(\\C)c2ccc(OC)cc2)c2ccc(OCCN3CCCCC3)cc2)cc1"
  Units symbol: "%"
  growth: 91
- Molecule: "CCCCOc1nc2ccc(Cl)cc2cc1/C=C/C(=O)/C=C/c1ccc(OC)cc1"
  Units symbol: "%"
  growth: 105
- Molecule: "CCn1c(C)nc([N+](=O)[O-])c1Sc1nc(N)nc2nc[nH]c12"
  Units symbol: "%"
  growth: 95.1
- Molecule: "Nc1n[nH]c2cccc(C#Cc3cccc(NC(=O)c4cccc(C(F)(F)F)c4)c3)c12"
  Units symbol: "%"
  growth: 80.1
- Molecule: "COc1ccc(-c2cc3ccc(N(C)C)cc3nc2N)c(F)c1"
  Units symbol: "%"
  growth: 49.8
- Molecule: "O=c1c2ccccc2sc2c(N3CCCC3)nc3ccccc3c12"
  Units symbol: "%"
  growth: 95.9
- Molecule: "CN(C)CCS(=O)(=O)Nc1cc(-c2ccc3ncnc(Nc4ccc(F)c(Cl)c4)c3c2)cnc1Cl"
  Units symbol: "%"
  growth: 41.6
- Molecule: "O=[N+]([O-])c1ccc(NS(=O)(=O)c2ccccc2)c2ccccc12"
  Units symbol: "%"
  growth: 48.4
- Molecule: "O=C(O)c1ccccc1C(=O)c1ccc(I)cc1"
  Units symbol: "%"
  growth: 110

* * *

# growth values compiled below
- Test system: KM12 colon
- Test: NCI-60 one-dose screen, 48 h (100 = growth as untreated, 0 = no growth, -100 = all killed)
- Condition label: 10 µM unless noted
Compounds without any hit were thinned out: in the full panel of roughly 83,000, 20% have a hit.

- Molecule: "CCN(CC)c1ccc(C2CC(c3cc(OC)c(OC)c(OC)c3)=NN2)cc1 (stereo not given)"
  growth (%): 11.1
- Molecule: "COC(OC)C1(c2ccccc2)NC(=O)NC1=O (stereo not given)"
  growth (%): 115
- Molecule: "CCOc1cccc(Nc2nc(N)nc3[nH]c4ccc(O)cc4c23)c1"
  growth (%): 87.6
- Molecule: "Nc1ncnc2c1c(-c1ccc(Oc3ccccc3)cc1)nn2C[C@@H]1SSC[C@H]1O"
  growth (%): 34.8
- Molecule: "COc1ccc(-c2nnc(SCC(=O)Nc3ccc(C(=O)/C=C/c4ccccc4)cc3)o2)cc1OC"
  growth (%): 99.6
